Reported z-score values for a set of compounds
assay.protocol: basal S. cerevisiae growth modulation, no modifier, primary screen, OD600, strain BY4716, 24 h, basal condition (AID 1173)
assay.setup: OD600, 24 h, higher = more signal, called active from +8 up or from −8 down
Reply with the value as a number alone.

// known answers, use as guide
{"columns": ["smiles.entry", "z-score"],
 "data": [
  ["CN(C)C(=O)[C@@]1(Cc2ccccc2)COC(c2ccc(OCCCO)cc2)=N1", -3.27],
  ["COCCOC(=O)N1C(=O)[C@@]2(c3cc(C#CCCO)ccc31)[C@H](c1ccccc1OCCO)N1[C@H](c3ccccc3)[C@H](c3ccccc3)OC(=O)[C@H]1[C@@H]2C(=O)N1CCCCCCC1", 0.971],
  ["COCC(=C=CC[C@@H](O)c1ccc(OCCO)cc1)CCO", -0.896]
]}

// next item, z-score requested
Lookup: Recorded z-score for "COC(=O)c1c2oc(c1C(=O)OC)C(=O)N1CCC[C@H]1Cn1nncc1CN(Cc1ccccc1)C(=O)N[C@H](CO)CC2" , please?
Found: -3.62
